The reader will find reported viability at 24 h values listed item by item below.
# PROTOCOL NOTES: Cytotoxicity against HEK293 cells assessed as cell viability up to 64 ug/ml incubated for 24 hrs by XTT assay relative to control
# Type: toxicity, cell-based
# CONDITION SET: human, up to 64 µg/mL, read-out: Activity
Starred links: 1 amine or outer side, 2 acyl side, 3 side chain; linkers in the order of their positions; H or OH if unused. Non-standard residues stand in square brackets, D forms with d. Residues, ends and D or L forms follow the SMILES beside them. X1 = CCCCCCCCCCCCCCCCN([C@@H](CCCCN)C(=O)[*:2])[*:1]; X2 = CCCCCCCCCCCCCCCCN([C@@H](C)C(=O)[*:2])[*:1]
Write the value in % as a bare number.

- CCCCCCCCCCCCCCCCN[C@@H](C)C(=O)N[C@@H](C)C(=O)N[C@@H](C)C(=O)N[C@@H](CCCCN)C(=O)N[C@@H](CCCNC(=N)N)C(=O)N[C@@H](CCCCN)C(=O)N[C@@H](CCCNC(=N)N)C(=O)O (H-[X2]AAKRKR-OH): 100
- CCCCCCCCCCCCCCCCN[C@@H](CCCCN)C(=O)N[C@@H](CCCNC(=N)N)C(=O)N[C@@H](CCCCN)C(=O)N[C@@H](CCCNC(=N)N)C(=O)O: 100

Request: Name the reported viability at 24 h value associated with the compound CCCCCCCCCCCCCCCCN[C@@H](CCCCN)C(=O)N[C@@H](Cc1c[nH]cn1)C(=O)N[C@@H](CCCCN)C(=O)N[C@@H](Cc1c[nH]cn1)C(=O)N[C@@H](CCCCN)C(=O)O (H-[X1]HKHK-OH)
Response: 100

Value source: ChEMBL document CHEMBL5365541
